Hello, the source for this data is ChEMBL document CHEMBL2429814, in case you need it.

Target: Metabotropic glutamate receptor 5 (Rattus norvegicus) (UniProt P31424)
Sequence (P31424 21-1203 limits assumed): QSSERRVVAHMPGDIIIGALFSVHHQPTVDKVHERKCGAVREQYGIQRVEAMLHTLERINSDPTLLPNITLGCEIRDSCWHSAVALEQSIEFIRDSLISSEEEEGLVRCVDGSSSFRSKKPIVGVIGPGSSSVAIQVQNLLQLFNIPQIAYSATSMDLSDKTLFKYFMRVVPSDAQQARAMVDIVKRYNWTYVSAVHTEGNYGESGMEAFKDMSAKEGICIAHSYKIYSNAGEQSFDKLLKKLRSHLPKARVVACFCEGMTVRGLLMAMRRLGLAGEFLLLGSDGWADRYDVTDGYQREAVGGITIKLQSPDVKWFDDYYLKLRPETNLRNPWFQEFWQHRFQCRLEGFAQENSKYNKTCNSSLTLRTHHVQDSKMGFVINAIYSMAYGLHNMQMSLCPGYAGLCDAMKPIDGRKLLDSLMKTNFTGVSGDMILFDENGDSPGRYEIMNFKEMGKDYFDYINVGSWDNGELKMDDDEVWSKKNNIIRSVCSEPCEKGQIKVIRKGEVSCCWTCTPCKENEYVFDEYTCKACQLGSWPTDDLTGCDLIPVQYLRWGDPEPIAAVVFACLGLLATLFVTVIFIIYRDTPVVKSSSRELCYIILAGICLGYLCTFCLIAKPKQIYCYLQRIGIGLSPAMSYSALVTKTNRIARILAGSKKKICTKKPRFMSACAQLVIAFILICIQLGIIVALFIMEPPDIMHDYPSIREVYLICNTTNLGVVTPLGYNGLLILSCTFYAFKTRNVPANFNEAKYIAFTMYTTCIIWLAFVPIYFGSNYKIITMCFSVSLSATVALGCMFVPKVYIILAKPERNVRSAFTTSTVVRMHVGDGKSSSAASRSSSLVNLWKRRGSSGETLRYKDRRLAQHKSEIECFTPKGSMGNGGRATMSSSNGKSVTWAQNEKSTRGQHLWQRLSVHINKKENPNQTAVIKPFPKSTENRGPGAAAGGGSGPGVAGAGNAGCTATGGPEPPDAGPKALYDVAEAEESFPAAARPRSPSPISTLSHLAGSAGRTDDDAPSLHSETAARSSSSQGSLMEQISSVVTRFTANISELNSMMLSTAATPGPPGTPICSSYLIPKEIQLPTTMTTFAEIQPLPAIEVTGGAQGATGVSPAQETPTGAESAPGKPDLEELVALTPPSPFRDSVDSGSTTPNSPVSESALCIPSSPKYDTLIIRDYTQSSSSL
Experiment: Positive allosteric modulation of rat mGluR5 stably expressed in HEK293 cells assessed as increase in intracellular calcium level by Fluo-4AM dye-based fluorescence assay relative to glutamate
Assay type: functional, cell-based
Parameter measured: Efficacy (%)
Give your result in % as a bare value.

Worked cases, Efficacy given:
C[C@H](NC(=O)c1ccc(C#Cc2cccc(F)c2)cn1)C(F)(F)F | 60.8
C[C@@H](NC(=O)c1ccc(C#Cc2ccc(F)cc2F)cn1)C(C)(C)O | 61.2
CC(C)(O)CNC(=O)c1ccc(C#Cc2cccc(F)c2)cn1 | 61.5
CC(C)(CO)NC(=O)c1ccc(C#Cc2cccc(F)c2)cn1 | 60.9
O=C(NCC1CC1)c1ccc(C#Cc2cccc(F)c2)cn1 | 61.4
CC(C)[C@@H](C)NC(=O)c1ccc(C#Cc2ccccn2)cn1 | 58.5

Ask: Give reported Efficacy value for `Cc1ccccc1C#Cc1ccc(C(=O)N[C@H](C)C(C)(C)O)nc1`
Reply: 59.9

Ask: Identify measured Efficacy corresponding to `C[C@@H](NC(=O)c1ccc(C#Cc2cc(F)cc(F)c2)cn1)C(C)(C)O`
Reply: 61.6

Ask: Find the measured Efficacy of `CC1(CNC(=O)c2ccc(C#Cc3cccc(F)c3)cn2)COC1` and report it.
Reply: 60.4

Ask: Return Efficacy for the following compound: `C[C@@H](NC(=O)c1ccc(C#Cc2ccccc2)cn1)C(C)(C)O`
Reply: 60.9

Ask: Indicate the recorded Efficacy value for this compound: `CC(C)CNC(=O)c1ccc(C#Cc2cccc(F)c2)cn1`
Reply: 58.2

Ask: Given the compound `C[C@@H](NC(=O)c1ccc(C#Cc2ncccc2F)cn1)C(C)(C)O` , write its reported Efficacy.
Reply: 60.6

Ask: Could you please provide reported Efficacy for `C[C@@H](NC(=O)c1ccc(C#Cc2ccccc2F)cn1)C(C)(C)O` ? Thanks!
Reply: 60
